Molecular target: T1, human melanocortin-3 receptor (hMC3-R) (human, UniProt P41968 1-323)
T1 construct: whole, on cells; membranes prepared from hMC3-R cells were used; also called Melanocortin Receptor 3
T1 sequence (P41968 whole entry): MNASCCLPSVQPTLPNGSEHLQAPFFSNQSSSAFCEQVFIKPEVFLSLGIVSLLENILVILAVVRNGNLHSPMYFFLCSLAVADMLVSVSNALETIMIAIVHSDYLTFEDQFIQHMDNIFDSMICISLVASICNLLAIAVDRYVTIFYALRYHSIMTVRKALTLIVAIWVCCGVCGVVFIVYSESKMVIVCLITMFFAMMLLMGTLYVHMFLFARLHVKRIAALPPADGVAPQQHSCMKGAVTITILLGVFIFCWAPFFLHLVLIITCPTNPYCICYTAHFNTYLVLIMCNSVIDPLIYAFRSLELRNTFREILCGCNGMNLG
Assay: 125I-NDP-α-MSH competition, hMC3-R membranes
Square brackets hold non-standard residues; d marks the D form. Nle = CCCC[C@H](N)C(=O)O
reported.endpoint: % Inhibition at 1 µM (%)
The response must be a number in % with no trailing unit.

Prompt: For the binder Ac-SYS[Nle]EHFRWGCKPV-NH2 (also: oxorhenium(V) N3S1 chelate at Cys11) [metallopeptide 1-4] , give its measured % Inhibition at 1 µM value.
Completion: 0

Prompt: For the binder Ac-SYS[Nle]EHFCRWGKPV-NH2 (also: oxorhenium(V) N3S1 chelate at Cys8) [metallopeptide 1-7] , give its measured % Inhibition at 1 µM value.
Completion: 0

Prompt: For the binder Ac-SYS[Nle]CEHFRWGKPV-NH2 (also: oxorhenium(V) N3S1 chelate at Cys5) [metallopeptide 1-10] , give its measured % Inhibition at 1 µM value.
Completion: 0

Prompt: For the binder Ac-SYS[Nle]EHCFRWGKPV-NH2 (also: oxorhenium(V) N3S1 chelate at Cys7) [metallopeptide 1-8] , give its measured % Inhibition at 1 µM value.
Completion: 0

Prompt: For the binder Ac-SYS[Nle]EHFRWGKGVC-NH2 (not fully specified; also: oxorhenium(V) N3S1 chelate at Cys14) [metallopeptide 1-1] , give its measured % Inhibition at 1 µM value.
Completion: 48
